Where these numbers come from: PubChem BioAssay (NCI)

Test system: K-562 leukemia
Assay: NCI-60 one-dose screen, 48 h
Conditions: 10 µM unless noted
Description: Cells are grown in 96 well plates and exposed to the test compound for 48 hours. Compounds are tested at a single concentration, which is 10^-5 M for most compounds. The reported endpoint is percent growth (GI% or GIPRCNT), where numbers from 0 - 100% represent growth inhibition, and numbers from -100% - 0 represent cell death. For example, a value of 40 represents 60% growth inhibition. A value of 0 means no net growth occurred over the course of the experiment. […]
This is part of a sample that, as a whole, favours compounds with a hit. Of some 83,000 tested, about 20% had one in any assay. Active and inactive are the calls of the source. Rule for the calls: active = growth percent below 10; inactive = the rest.
Outcome field: choose from yes for active, no for inactive

[[record]]
molecule = "O=C1CN=C(c2ccc(Cl)cc2)c2sccc2N1"
classification = "no"

[[record]]
molecule = "Brc1ccc2c(c1)c(-c1nc(-c3c[nH]c4ncccc34)cs1)cn2CCN1CCCCC1"
classification = "yes"

[[record]]
molecule = "O=[N+]([O-])c1ccc(OP(=O)(CCl)N(CCCl)CCCl)cc1 (centres undefined)"
classification = "no"

[[record]]
molecule = "Nc1ccc(Cl)cc1"
classification = "no"

[[record]]
molecule = "O=C(CC1(O)C(=O)N(Cc2ccccc2)c2ccccc21)c1ccc(C(=O)NCC2CCC3(CC2)OOC2(CCCCC2)OO3)cc1 (centres undefined)"
classification = "yes"

[[record]]
molecule = "Cc1ccc2c(C(C[N+](=O)[O-])c3cccs3)c(-c3ccccc3)[nH]c2c1 (centres undefined)"
classification = "no"


Task: I'd appreciate the recorded outcome for `CN1C(=O)C(=Cc2cn(CCCCCCn3c4ccccc4c(=O)c4ccccc43)c3ccccc23)C(=O)N(C)C1=O` from this test.
Output: no

Task: Lookup NC(=O)CNc1ccc([As]=[As]c2ccc(NCC(N)=O)cc2)cc1 (centres undefined)
Output: no

Task: Lookup `Cc1cc(N(CCCl)CCCl)ccc1C=Nc1ccc(-c2csc(Cc3ccccc3)n2)cc1`
Output: no
